Reference source for all entries: ChEMBL document CHEMBL6114999

- assayProtocol: Cytotoxicity against human HEp-2 cells incubated for 48 hrs by MTT assay
- Assay type: toxicity, cell-based
Doc: threshold 200 µM (exclusive). Items with CC50 at 48 h beneath it return condition met; others return condition not met.

Look over these answered cases.
1) CC(NC(=O)C12CCC(=O)N1c1ccccc1C(=O)N2C)c1ccccc1 (stereo not given) | condition not met
2) CSCCNC(=O)C12CCC(=O)N1c1ccc(Cl)cc1C(=O)N2 (stereo not given) | condition not met

## Task Bench note: check whether COC(=O)C(Cc1c[nH]c2ccccc12)NC(=O)C12CCC(=O)N1c1ccccc1C(=O)N2 (stereo not given) shows CC50 at 48 h below 200 µM
## Result condition met

## Task How about COc1cc(CNC(=O)C23CCC(=O)N2c2ccccc2C(=O)N3C)ccc1O (stereo not given) ?
## Result condition not met

## Task How about CN1C(=O)c2ccccc2N2C(=O)CCC12C(=O)O (stereo not given) ?
## Result condition not met

## Task How about CSCCNC(=O)C12CCC(=O)N1c1ccccc1C(=O)N2 (stereo not given) ?
## Result condition not met

## Task How about COC(=O)C(CCSC)NC(=O)C12CCC(=O)N1c1ccccc1C(=O)N2 (stereo not given) ?
## Result condition not met

## Task How about COC(=O)C(CCSC)NC(=O)C12CCC(=O)N1c1ccc(Cl)cc1C(=O)N2 (stereo not given) ?
## Result condition not met

## Task How about O=C1NC2(C(=O)NCCc3c[nH]c4ccccc34)CCC(=O)N2c2ccccc21 (stereo not given) ?
## Result condition met
